These data points were gathered from ChEMBL document CHEMBL1667751.

What zone of inhibition at 100 µg/mL was measured for each of the following?
test system: Salmonella typhi; assay: Antibacterial activity against Salmonella typhi at 100 ug/ml after 24 hrs agar diffusion method; type: functional, Salmonella enterica subsp. enterica serovar Typhi; conditions: Salmonella enterica, read-out: DIZ
Returns: string containing the number followed by the unit.

Sample CCOC(=O)[C@@H]1[C@@H]([C@H]2[C@@H](c3ccccc3)C(=O)N2c2ccc(OC)cc2)C2CCCN2C12C(=O)c1ccccc1C2=O (some centres undefined) ; zone of inhibition at 100 µg/mL observed: 20 mm

Sample CCOC(=O)[C@@H]1[C@@H]([C@H]2[C@@H](Oc3ccccc3)C(=O)N2c2ccc(OC)cc2)CN(C)[C@@]12C(=O)c1cccc3cccc2c13 ; zone of inhibition at 100 µg/mL observed: 16 mm

Sample CCOC(=O)[C@@H]1[C@@H]([C@H]2[C@@H](c3ccccc3)C(=O)N2c2ccc(OC)cc2)C2CCCN2[C@]12C(=O)Nc1ccccc12 (some centres undefined) ; zone of inhibition at 100 µg/mL observed: 26 mm

Sample CCOC(=O)[C@@H]1[C@@H]([C@H]2[C@@H](c3ccccc3)C(=O)N2c2ccc(OC)cc2)CN(C)[C@@]12C(=O)c1cccc3cccc2c13 ; zone of inhibition at 100 µg/mL observed: 18 mm
